EXPERIMENT_SUMMARY: Solubility in 10% DMA(expressed as mean of 3 determinations)
Format: physicochemical
CONDITION_PARAMETERS: read-out: S
Known solubility of a selection of compounds
Dear colleague, please return just the value in µg/mL, with no unit written.

COMPOUND	UNIT_TEXT	NUMBER
COc1ccc(OC)c(C(=O)O[C@H]2C3[C@](C)(C(=O)[C@H](OC(=O)CCSSC)C4=C(C)[C@@H](OC(=O)[C@H](O)[C@H](C=C(C)C)NC(=O)OC(C)(C)C)C[C@]2(O)C4(C)C)C(O)C[C@H]2OC[C@@]32OC(C)=O)c1 (some centres not stated)	µg/mL	8

Okay, now this compound:
Incoming: solubility for COc1ccc(OC)c(C(=O)O[C@H]2C3[C@](C)(C(=O)[C@H](OC(=O)CCOCCOCCOCCOCCSSC)C4=C(C)[C@@H](OC(=O)[C@H](O)[C@H](C=C(C)C)NC(=O)OC(C)(C)C)C[C@]2(O)C4(C)C)C(O)C[C@H]2OC[C@@]32OC(C)=O)c1 (some centres not stated) ?
Outgoing: 79
